Target: HIF PHD2 (Homo sapiens, UniProt Q9GZT9)
Sequence (Q9GZT9 whole entry): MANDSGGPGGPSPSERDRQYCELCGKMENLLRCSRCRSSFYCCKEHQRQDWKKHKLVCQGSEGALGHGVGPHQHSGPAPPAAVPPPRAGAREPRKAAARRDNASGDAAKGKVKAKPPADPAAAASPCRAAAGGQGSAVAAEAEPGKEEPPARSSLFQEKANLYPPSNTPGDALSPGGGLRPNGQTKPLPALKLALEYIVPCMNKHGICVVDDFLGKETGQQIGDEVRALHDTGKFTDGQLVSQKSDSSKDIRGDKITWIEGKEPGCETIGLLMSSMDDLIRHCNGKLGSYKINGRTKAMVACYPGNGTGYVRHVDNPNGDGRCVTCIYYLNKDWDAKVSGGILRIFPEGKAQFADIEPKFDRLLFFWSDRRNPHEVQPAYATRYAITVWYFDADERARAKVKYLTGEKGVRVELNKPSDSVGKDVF
pIC50: −log10 of the molar value. Counter-ions that a name gives are not always drawn.
Recorded pIC50, one value per entry.
readout_kind: pIC50

compound=Cc1ccccc1-c1cc2c(O)c(C(=O)NCC(=O)O)c(=O)n(C)c2c(C(F)(F)F)n1 meas_value="> 7.30"
compound="Cn1c(=O)c(C(=O)NCC(=O)O)c(O)c2cc(C3CCOC3)c(C(F)(F)F)nc21 (single isomer, unassigned) [Example 103]" meas_value="> 7.30"
compound=CC#Cc1cnc2c(O)c(C(=O)NCC(=O)O)c(=O)n(C)c2c1 meas_value="7.00 to 7.30"
compound=CC(C)Oc1ccccc1-c1cnc2c(c1)c(O)c(C(=O)NCC(=O)O)c(=O)n2C meas_value="6.30 to 7.00"
compound=Cn1c(=O)c(C(=O)NCC(=O)O)c(O)c2ccc(C(F)(F)F)nc21 meas_value="> 7.30"
compound="Cn1c(=O)c(C(=O)NCC(=O)O)c(O)c2cc(C3CCOC3)c(C(F)(F)F)nc21 (single isomer, unassigned) [Example 104]" meas_value="7.00 to 7.30"
compound=Cn1c(=O)c(C(=O)N[C@@H](CO)C(=O)O)c(O)c2cc(C3=CCCCC3)cnc21 meas_value="6.00 to 6.30"
compound="Cn1c(=O)c(C(=O)NCC(=O)O)c(O)c2c(C(F)(F)F)nccc21 [Example 132, Trifluoroacetic acid salt]" meas_value="7.00 to 7.30"
compound="CN1CCN(c2cc3c(O)c(C(=O)NCC(=O)O)c(=O)n(C)c3cn2)CC1 [Example 122, Trifluoroacetic acid salt]" meas_value="6.30 to 7.00"
compound=CN(C)c1ccc(-c2cnc3c(c2)c(O)c(C(=O)NCC(=O)O)c(=O)n3C)cc1 meas_value="6.30 to 7.00"
compound=Cc1ccnc(-c2cnc3c(c2)c(O)c(C(=O)NCC(=O)O)c(=O)n3C)n1 meas_value="> 7.30"
compound="Cn1c(=O)c(C(=O)NCC(=O)O)c(O)c2cc(C3CCCO3)cnc21 (centres unmarked)" meas_value="7.00 to 7.30"
compound=Cn1c(=O)c(C(=O)NCC(=O)O)c(O)c2ccc(-c3cccs3)nc21 meas_value="> 7.30"
compound="Cn1c(=O)c(C(=O)NCC(=O)O)c(O)c2cc(N3CCCCC3)ncc21 [Example 121, Trifluoroacetic acid salt]" meas_value="7.00 to 7.30"
compound=COCC#Cc1cnc2c(O)c(C(=O)NCC(=O)O)c(=O)n(C)c2c1 meas_value="> 7.30"
compound="Cn1c(=O)c(C(=O)NCC(=O)O)c(O)c2cc(C3CCOC3)c(C(F)(F)F)nc21 (racemic) [Example 100]" meas_value="> 7.30"
compound=CC(C)Oc1cccc(-c2cnc3c(c2)c(O)c(C(=O)NCC(=O)O)c(=O)n3C)c1 meas_value="6.30 to 7.00"
compound=Cc1ccccc1-c1cnc2c(c1)c(O)c(C(=O)NCC(=O)O)c(=O)n2C meas_value="7.00 to 7.30"
compound=Cn1c(=O)c(C(=O)NCC(=O)O)c(O)c2ccc(C#C[Si](C)(C)C)nc21 meas_value="7.00 to 7.30"
compound=Cn1c(=O)c(C(=O)NCC(=O)O)c(O)c2cc(C#CC3CC3)c(C(F)(F)F)nc21 meas_value="> 7.30"
compound="CN1CC=C(c2cc3c(O)c(C(=O)NCC(=O)O)c(=O)n(C)c3cn2)CC1 [Example 116, Trifluoroacetic acid salt]" meas_value="> 7.30"
compound=CCCCc1cnc2c(c1)c(O)c(C(=O)NCC(=O)O)c(=O)n2C meas_value="7.00 to 7.30"
compound="Cn1c(=O)c(C(=O)NCC(=O)O)c(O)c2cc(C3CCCO3)c(C(F)(F)F)nc21 (single isomer, unassigned) [Example 102]" meas_value="7.00 to 7.30"
compound=Cn1c(=O)c(C(=O)NCC(=O)O)c(O)c2cc(-c3cccc(N4CCOCC4)c3)cnc21 meas_value="7.00 to 7.30"
compound=Cn1c(=O)c(C(=O)NCC(=O)O)c(O)c2cc(C3=CCOCC3)cnc21 meas_value="7.00 to 7.30"
compound=Cc1ccc(-c2cnc3c(c2)c(O)c(C(=O)NCC(=O)O)c(=O)n3C)c(F)n1 meas_value="> 7.30"
compound=Cn1c(=O)c(C(=O)NCC(=O)O)c(O)c2cc(-c3ccnc(F)c3)cnc21 meas_value="> 7.30"
compound=Cn1c(=O)c(C(=O)NCC(=O)O)c(O)c2cc(C#CC(C)(C)C)cnc21 meas_value="> 7.30"
compound=Cn1c(=O)c(C(=O)NCC(=O)O)c(O)c2cc(-c3ccncc3)cnc21 meas_value="6.30 to 7.00"
compound=CCCc1cnc2c(c1)c(O)c(C(=O)NCC(=O)O)c(=O)n2C meas_value="7.00 to 7.30"
compound=Cn1c(=O)c(C(=O)NCC(=O)O)c(O)c2ccc(Br)nc21 meas_value="> 7.30"
compound=Cn1c(=O)c(C(=O)NCC(=O)O)c(O)c2cc(-c3ccccc3)nc(C(F)(F)F)c21 meas_value="6.30 to 7.00"

----------
Counter-ions that a name gives are not always drawn.
The listing below reports IC50 for compounds tested on HIF PHD2 (Homo sapiens, UniProt Q9GZT9).
readout_kind: IC50

compound=C[C@H](NC(=O)c1c(O)c2cc(I)cnc2n(C)c1=O)C(=O)O readout_kind=IC50 meas_value="< 50 nM"
compound=Cn1c(=O)c(C(=O)NCC(=O)O)c(O)c2cc(C3CCCC3)c(C(F)(F)F)nc21 readout_kind=IC50 meas_value="100 to 500 nM"
compound=Cn1c(=O)c(C(=O)NCC(=O)O)c(O)c2cc(-c3ccc4c(c3)CCO4)cnc21 readout_kind=IC50 meas_value="50 to 100 nM"
compound=Cn1c(=O)c(C(=O)NCC(=O)O)c(O)c2ccc(-c3cccnc3)nc21 readout_kind=IC50 meas_value="< 50 nM"
compound="Cn1c(=O)c(C(=O)NCC(=O)O)c(O)c2cc(C3CCCO3)c(C(F)(F)F)nc21 (single isomer, unassigned) [Example 101]" readout_kind=IC50 meas_value="< 50 nM"
compound=Cn1c(=O)c(C(=O)NCC(=O)O)c(O)c2cc(I)cnc21 readout_kind=IC50 meas_value="< 50 nM"
compound=CN(C)c1ccccc1-c1cnc2c(c1)c(O)c(C(=O)NCC(=O)O)c(=O)n2C readout_kind=IC50 meas_value="50 to 100 nM"
compound=Cn1c(=O)c(C(=O)NCC(=O)O)c(O)c2cc(-c3cncnc3)cnc21 readout_kind=IC50 meas_value="< 50 nM"
compound=Cn1c(=O)c(C(=O)NCC(=O)O)c(O)c2cc(-c3ccc(F)nc3)cnc21 readout_kind=IC50 meas_value="< 50 nM"
compound=Cn1c(=O)c(C(=O)NCC(=O)O)c(O)c2cc(-c3cccs3)ncc21 readout_kind=IC50 meas_value="< 50 nM"
compound=Cn1c(=O)c(C(=O)NCC(=O)O)c(O)c2cc(-c3nccc(C(F)(F)F)n3)cnc21 readout_kind=IC50 meas_value="< 50 nM"
compound=Cc1ccccc1-c1cc2c(O)c(C(=O)NCC(=O)O)c(=O)n(C)c2cn1 readout_kind=IC50 meas_value="< 50 nM"
compound=Cn1c(=O)c(C(=O)NCC(=O)O)c(O)c2cc(-c3ccccc3)ncc21 readout_kind=IC50 meas_value="< 50 nM"
compound=Cc1nc(F)ccc1-c1cnc2c(c1)c(O)c(C(=O)NCC(=O)O)c(=O)n2C readout_kind=IC50 meas_value="< 50 nM"
compound="Cn1c(=O)c(C(=O)NCC(=O)O)c(O)c2c(Br)nccc21 [Example 130, Trifluoroacetic acid salt]" readout_kind=IC50 meas_value="< 50 nM"
compound="Cn1c(=O)c(C(=O)NCC(=O)O)c(O)c2cc(-c3ccc(OC(F)(F)F)cc3)ncc21 [Example 110, Trifluoroacetic acid salt]" readout_kind=IC50 meas_value="< 50 nM"
compound=Cn1c(=O)c(C(=O)NCC(=O)O)c(O)c2ncc(Br)cc21 readout_kind=IC50 meas_value="< 50 nM"

----------
Biological target: UniProtKB Q9GZT9
Where a name gives a salt, the structure may show the parent alone.
Recorded IC50, one value per entry.
readout_kind: IC50

compound=Cn1c(=O)c(C(=O)NCC(=O)O)c(O)c2cc(-c3ccc4c(c3)CCO4)ncc21 readout_kind=IC50 meas_value="< 50 nM"
compound=COc1ncccc1-c1cnc2c(c1)c(O)c(C(=O)NCC(=O)O)c(=O)n2C readout_kind=IC50 meas_value="< 50 nM"
compound=C#Cc1cnc2c(c1)c(O)c(C(=O)NCC(=O)O)c(=O)n2C readout_kind=IC50 meas_value="100 to 500 nM"
compound="Cn1c(=O)c(C(=O)NCC(=O)O)c(O)c2cc(C3CCNCC3)ncc21 [Example 115, Trifluoroacetic acid salt]" readout_kind=IC50 meas_value="50 to 100 nM"
compound="Cn1c(=O)c(C(=O)NCC(=O)O)c(O)c2cc(C3CCCCO3)cnc21 (single isomer, unassigned)" readout_kind=IC50 meas_value="50 to 100 nM"
compound=Cn1c(=O)c(C(=O)NCC(=O)O)c(O)c2ccc(N3CCCCC3)nc21 readout_kind=IC50 meas_value="50 to 100 nM"
compound=Cn1c(=O)c(C(=O)NCC(=O)O)c(O)c2cc(C3CCCCC3)cnc21 readout_kind=IC50 meas_value="< 50 nM"
compound="CC(=O)N1CC=C(c2cc3c(O)c(C(=O)NCC(=O)O)c(=O)n(C)c3cn2)CC1 [Example 118, Trifluoroacetic acid salt]" readout_kind=IC50 meas_value="< 50 nM"
compound="Cn1c(=O)c(C(=O)NCC(=O)O)c(O)c2cc(N3CCOCC3)ncc21 [Example 120, Trifluoroacetic acid salt]" readout_kind=IC50 meas_value="< 50 nM"
compound="Cn1c(=O)c(C(=O)NCC(=O)O)c(O)c2c(NCC(=O)O)nccc21 [Example 129, Trifluoroacetic acid salt]" readout_kind=IC50 meas_value="< 50 nM"
compound=Cn1c(=O)c(C(=O)NCC(=O)O)c(O)c2cc(-c3cccc(N4CCCC4)c3)cnc21 readout_kind=IC50 meas_value="100 to 500 nM"
compound="CN1CCC(c2cc3c(O)c(C(=O)NCC(=O)O)c(=O)n(C)c3cn2)CC1 [Example 117, Trifluoroacetic acid salt]" readout_kind=IC50 meas_value="< 50 nM"
compound=Cn1c(=O)c(C(=O)NCC(=O)O)c(O)c2ncc(-c3ccccc3)cc21 readout_kind=IC50 meas_value="50 to 100 nM"
compound=Cn1c(=O)c(C(=O)NCC(=O)O)c(O)c2cc(C3=CCCCC3)c(C(F)(F)F)nc21 readout_kind=IC50 meas_value="< 50 nM"
compound="Cn1c(=O)c(C(=O)NCC(=O)O)c(O)c2cc(C3CCCO3)c(C(F)(F)F)nc21 (racemic) [Example 99]" readout_kind=IC50 meas_value="< 50 nM"
